assay_protocol: Probe fluorescence ratio response to linoleic acid relative to ADIFAB2
Type: binding
measurement_context: Table 4
observed_property: ΔR/DRAΔ2 LA
Answers are plain numbers.

Some entries whose results are on file:
molecule	ΔR/DRAΔ2 LA
L1P12E11: FABP probe, substitutions Y14L L72W vs SEQ ID NO: 2 (protein, listed as Rattus norvegicus, PEPTIDE (1)...(131) wild-type rat intestinal fatty acid binding protein) AFDGTWKVDRNENLEKFMEKMGINVVKRKLGAHDNLKLTITQEGNKFTVKESSNFRNIDVVFELGVDFAYSWADGTELTGTWTMEGNKLVGKFKRVDNGKELIAVREISGNELIQTYTYEGVEAKRIFKKE	−0.7
L1P17A1: FABP probe, substitutions Y14I L72W vs SEQ ID NO: 2 (protein, listed as Rattus norvegicus, PEPTIDE (1)...(131) wild-type rat intestinal fatty acid binding protein) AFDGTWKVDRNENIEKFMEKMGINVVKRKLGAHDNLKLTITQEGNKFTVKESSNFRNIDVVFELGVDFAYSWADGTELTGTWTMEGNKLVGKFKRVDNGKELIAVREISGNELIQTYTYEGVEAKRIFKKE	−1.0
L1P8H2: FABP probe, substitutions Y14M L38M L72W vs SEQ ID NO: 2 (protein, listed as Rattus norvegicus, PEPTIDE (1)...(131) wild-type rat intestinal fatty acid binding protein) AFDGTWKVDRNENMEKFMEKMGINVVKRKLGAHDNLKMTITQEGNKFTVKESSNFRNIDVVFELGVDFAYSWADGTELTGTWTMEGNKLVGKFKRVDNGKELIAVREISGNELIQTYTYEGVEAKRIFKKE	−1.5
L1P7H4: FABP probe, substitutions Y14I L38M L72W vs SEQ ID NO: 2 (protein, listed as Rattus norvegicus, PEPTIDE (1)...(131) wild-type rat intestinal fatty acid binding protein) AFDGTWKVDRNENIEKFMEKMGINVVKRKLGAHDNLKMTITQEGNKFTVKESSNFRNIDVVFELGVDFAYSWADGTELTGTWTMEGNKLVGKFKRVDNGKELIAVREISGNELIQTYTYEGVEAKRIFKKE	−1.3
L1P5A10: FABP probe, substitution Y117A vs SEQ ID NO: 2 (protein, listed as Rattus norvegicus, PEPTIDE (1)...(131) wild-type rat intestinal fatty acid binding protein) AFDGTWKVDRNENYEKFMEKMGINVVKRKLGAHDNLKLTITQEGNKFTVKESSNFRNIDVVFELGVDFAYSLADGTELTGTWTMEGNKLVGKFKRVDNGKELIAVREISGNELIQTATYEGVEAKRIFKKE	1.2
L1P7B11: FABP probe, substitutions Y14I L38I L72V vs SEQ ID NO: 2 (protein, listed as Rattus norvegicus, PEPTIDE (1)...(131) wild-type rat intestinal fatty acid binding protein) AFDGTWKVDRNENIEKFMEKMGINVVKRKLGAHDNLKITITQEGNKFTVKESSNFRNIDVVFELGVDFAYSVADGTELTGTWTMEGNKLVGKFKRVDNGKELIAVREISGNELIQTYTYEGVEAKRIFKKE	0.9

State recorded ΔR/DRAΔ2 LA for all listed molecules.
1. L1P3D6: FABP probe, substitution Y14L vs SEQ ID NO: 2 (protein, listed as Rattus norvegicus, PEPTIDE (1)...(131) wild-type rat intestinal fatty acid binding protein) AFDGTWKVDRNENLEKFMEKMGINVVKRKLGAHDNLKLTITQEGNKFTVKESSNFRNIDVVFELGVDFAYSLADGTELTGTWTMEGNKLVGKFKRVDNGKELIAVREISGNELIQTYTYEGVEAKRIFKKE
2. L1P1C3: FABP probe, substitutions Y14M L72W vs SEQ ID NO: 2 (protein, listed as Rattus norvegicus, PEPTIDE (1)...(131) wild-type rat intestinal fatty acid binding protein) AFDGTWKVDRNENMEKFMEKMGINVVKRKLGAHDNLKLTITQEGNKFTVKESSNFRNIDVVFELGVDFAYSWADGTELTGTWTMEGNKLVGKFKRVDNGKELIAVREISGNELIQTYTYEGVEAKRIFKKE

Response:
1: 0.8; 2: −1.1

Query: ΔR/DRAΔ2 LA lookup needed for L1P1F7: FABP probe, substitutions Y14L L38M Y117F vs SEQ ID NO: 2 (protein, listed as Rattus norvegicus, PEPTIDE (1)...(131) wild-type rat intestinal fatty acid binding protein) AFDGTWKVDRNENLEKFMEKMGINVVKRKLGAHDNLKMTITQEGNKFTVKESSNFRNIDVVFELGVDFAYSLADGTELTGTWTMEGNKLVGKFKRVDNGKELIAVREISGNELIQTFTYEGVEAKRIFKKE , thanks.
Response: 0.9

Hello, the source for this data is patent US20060257938A1, in case you need it.
